test system: SR; test: NCI tumour cell line growth inhibition, 48 h
Active and inactive are the calls of the source. No stated cut-off is given here; in the data, active = GI50 up to about 1.1 µM and inactive = higher.
Reported GI50 values are given for each entry in this list.

# compound, GI50
data = [
    ("CC1=C(C)C2(C#N)C(=O)N3C(=NC(c4ccccc4)NC3c3ccccc3)C2(C#N)C(c2ccccc2)N1 (stereo not given)", "> 100 µM (inactive)"),
    ("O=c1[nH]nc(-c2ccccc2)n1Nc1ccccc1", "> 100 µM (inactive)"),
    ("O=[N+]([O-])c1ccc(Sc2c3ccccc3nc3ccccc23)nc1", "2.47 µM (inactive)"),
    ("O=C1CCC2(c3ccccc3)OCC([C@@H](O)c3ccccc3)N12 (stereo not given in full)", "> 100 µM (inactive)"),
    ("COc1cc2c(cc1OC)C(Cl)C(c1ccc(F)cc1)=C2Cl (stereo not given)", "3.01 µM (inactive)"),
    ("Fc1ccc(C2(CCCN3CCc4[nH]c5cc(F)ccc5c4C3)OCCO2)cc1", "7.52 µM (inactive)"),
    ("COc1cc(CCNC2=CC(=O)c3cccnc3C2=O)ccc1O", "1.87 µM (inactive)"),
    ("CC1(C)CC(/C=C2/OC(=O)c3ccccc32)=C(C#N)C(=O)O1", "> 100 µM (inactive)"),
    ("Cc1nc(C(N)=S)sc1C(=O)CC(=O)C(=O)Nc1cccc(Cl)c1C", "> 100 µM (inactive)"),
    ("Cc1cc(-c2ccc(C(=O)C(c3ccccc3)(c3ccccc3)c3ccccc3)[nH]2)on1", "2.17 µM (inactive)"),
    ("Cc1ccc(C(CCO)CCO)nc1", "> 100 µM (inactive)"),
    ("CC1(C)CCCC2(C)[C@@H]1CC[C@]13C[C@](C)(CC[C@@H]21)[C@@H]3CO (stereo not given in full)", "> 10 µM (inactive)"),
    ("CC1=CP(=O)(OC(C)C)C=C(C)C1=C(Cl)Cl (stereo not given)", "35.5 µM (inactive)"),
    ("CC(=O)C1=NN(c2ccccc2)C2(S1)SC(c1ccccc1)(c1ccccc1)c1ccccc12 (stereo not given)", "20.4 µM (inactive)"),
    ("CO/C(N)=C(C#N)/N=C/c1ccccc1", "> 100 µM (inactive)"),
]

----------
system: Hs-578T; assay: NCI tumour cell line growth inhibition, 48 h
Calls of active or inactive are those of the source. No stated cut-off is given here; in the data, active = GI50 up to about 1.1 µM and inactive = higher.
Labels: TRUE for active, FALSE for inactive

# compound, test_system, category
data = [
    ("COc1ccc(-c2c3c(cc4cc5c(cc24)OCO5)C(=O)OC3)cc1OC", "Hs-578T", "FALSE"),
    ("O=C(CC(=O)N1N=C(N2CCCCC2)CC1c1ccccc1)Nc1ccccc1 (stereo not drawn)", "Hs-578T", "FALSE"),
    ("CC1(C)OC1COc1c2occc2cc2ccc(=O)oc12 (stereo not drawn)", "Hs-578T", "FALSE"),
    ("Fc1ccc(C2(CCCN3CCc4[nH]c5cc(F)ccc5c4C3)OCCO2)cc1", "Hs-578T", "FALSE"),
    ("CC(=O)Nc1cc2c(cc1O)CC[C@@H]1[C@@H]2CC[C@]2(C)[C@@H](O)CC[C@@H]12", "Hs-578T", "FALSE"),
    ("Cc1c(Cl)ccc2c(=O)c3cccc(CC(=O)O)c3oc12", "Hs-578T", "FALSE"),
    ("O=C1/C(=C/c2ccccc2)CCC/C1=C\\c1ccc(O)c(CN2CCCCC2)c1", "Hs-578T", "FALSE"),
    ("CCCC(=O)Nc1cc(/C=C/C(=O)N2CC(CCl)c3ccc([N+](=O)[O-])cc32)n(C)c1 (stereo not drawn)", "Hs-578T", "FALSE"),
    ("COP(=O)(OC)C(N)CCSC (stereo not drawn)", "Hs-578T", "FALSE"),
    ("O=C(CSc1nc2ccccc2c2ccccc12)c1ccccc1", "Hs-578T", "TRUE"),
    ("O=S1(=O)CS(=O)(=O)OCCCO1", "Hs-578T", "FALSE"),
    ("Nc1ccc(Oc2ccc(C34CC5C6CC7(c8ccc(Oc9ccc(N)cc9)cc8)CC5C(C3)C(C7)C6C4)cc2)cc1", "Hs-578T", "FALSE"),
    ("COC(=O)c1ccccc1C1CN=NC12Cc1ccc3ccccc3c1C2=O (stereo not drawn)", "Hs-578T", "FALSE"),
]

----------
test system: MCF7; experiment: NCI tumour cell line growth inhibition, 48 h
The source made the active and inactive calls. Rule as the data show it: active = GI50 up to about 1.1 µM and inactive = higher.
Below is a list of entries, each paired with its recorded GI50 value.
observation_type: GI50

# compound, test_system, result
records = [
    ("O=C1/C(=C/c2ccccc2)CCC/C1=C\\c1ccc(O)c(CN2CCCCC2)c1", "MCF7", "4.32 µM (inactive)"),
    ("C=CCC(CC=O)(C(=O)OCC)C(=O)OCC", "MCF7", "> 100 µM (inactive)"),
    ("CCOC(=O)c1c(N=C(S)Nc2ccc(Cl)cc2)sc2c1CCN(C)C2", "MCF7", "> 100 µM (inactive)"),
    ("Cn1c2cc(Cl)ccc2c2ccc3c(c21)C(=O)C=CC3=O", "MCF7", "13.8 µM (inactive)"),
    ("CC1(C)OC1COc1c2occc2cc2ccc(=O)oc12 (stereo not given)", "MCF7", "> 100 µM (inactive)"),
]

----------
GI50 overview
tested on: U-251; test: NCI tumour cell line growth inhibition, 48 h
Calls of active or inactive are those of the source. No stated cut-off is given here; in the data, active = GI50 up to about 1.1 µM and inactive = higher.

# molecule, GI50
records = [
    ("NC(=O)CCC(NC(=O)C(F)(F)F)C(=O)O (stereo not given)", "> 100 µM (inactive)"),
    ("CCOC(=O)c1c(N2CCN(C)CC2)[nH]c(=O)c(C(c2c(Cl)cccc2Cl)c2c(O)c(C(=O)OCC)c(N3CCN(C)CC3)[nH]c2=O)c1O", "23.1 µM (inactive)"),
    ("CN(C)CCCNc1ccc2nnn3c4ccc(OC(=O)c5ccccc5)cc4c(=O)c1c23", "11.5 µM (inactive)"),
    ("Cc1cc(-c2ccc(C(=O)C(c3ccccc3)(c3ccccc3)c3ccccc3)[nH]2)on1", "12.9 µM (inactive)"),
    ("CC12CCC(/C(=N/c3ccc([N+](=O)[O-])cc3)C1=O)C2(C)C (stereo not given)", "24.9 µM (inactive)"),
    ("Nc1nc(S)c2c(N)n[nH]c2c1C(=O)Nc1ccccc1", "> 100 µM (inactive)"),
    ("COc1cc2ncnc(NS(=O)(=O)c3cc4ccccc4s3)c2cc1OC", "> 100 µM (inactive)"),
    ("C#C[C@@H](CCCC)OC(=O)N[C@H](C)c1ccccc1", "37.4 µM (inactive)"),
    ("CC1=C2C(=O)c3ccccc3C(=O)[C@H]2[C@H]2CCO[C@H]2O1", "24.2 µM (inactive)"),
    ("COc1ccc(C(=O)CC(c2ccc(OC)c(OC)c2)c2c(O)oc3ccccc3c2=O)cc1OC (stereo not given)", "> 100 µM (inactive)"),
    ("CC1NCCC(CC(=O)O)C1CC(=O)O (stereo not given)", "> 100 µM (inactive)"),
    ("Cc1csc2[n+]1C(=O)/C(=C\\c1ccc([N+](=O)[O-])cc1)S2", "18.7 µM (inactive)"),
    ("C/C(=C(/C)c1cc[n+](C)cc1)c1cc[n+](C)cc1", "> 75 µM (inactive)"),
    ("CC1(C)OC(=S)N(c2ccccc2)C12C=Cc1ccccc1O2 (stereo not given)", "> 100 µM (inactive)"),
    ("Cc1cccc(N(C(=O)Nc2ccc(Cl)c(Cl)c2)C2=NCC(C)S2)c1 (stereo not given)", "62.5 µM (inactive)"),
]

----------
tested on: SF-539; assay: NCI tumour cell line growth inhibition, 48 h
Activity calls are given as the source filed them. No stated cut-off is given here; in the data, active = GI50 up to about 1.1 µM and inactive = higher. Residues, ends and D or L forms follow the SMILES beside them. *: point of attachment. Cbz = O=C(OCc1ccccc1)*

# molecule, GI50
records = [
    ("CO/C(N)=C(C#N)/N=C/c1ccccc1", "> 100 µM (inactive)"),
    ("COC(=O)C1=CCON(c2ccccc2)C1c1ccccc1 (configuration not stated)", "> 100 µM (inactive)"),
    ("COc1cccc(N/C(C)=C2/CCOC2=O)c1", "> 10 µM (inactive)"),
    ("O=C1C[C@H](Sc2ccccc2)C2(OCCO2)[C@H]2ON3CCC[C@@H]3[C@@H]12", "1.2 µM (inactive)"),
    ("CCOC(=O)CCC(NC(=O)OCc1ccccc1)C(=O)NC(CCC(=O)OCC)C(=O)OCC (configuration not stated) (Cbz-Glu(OEt)-Glu(OEt)-OEt; configuration not given here)", "> 100 µM (inactive)"),
    ("O=c1[nH]c2ccccc2c2oc(-c3ccccc3)nc12", "16.7 µM (inactive)"),
    ("COC(=O)C1CC(C(=O)OC)c2nc3cc(C)c(C)cc3nc21 (configuration not stated)", "> 100 µM (inactive)"),
]
